Taken from ChEMBL document CHEMBL5058577.

Tested on: U2OS
procedure-summary: Multiplex assay against U2OS
Format: toxicity, cell-based
assay-context: human, 48 h, 10 µM, compound concentration 10 uM, replicate 2
Would you please tag the item TRUE when its Population Healthy Nuclei (%) is 70% or above, and FALSE when it is below?

Dear colleague, could you confirm whether CC(C)c1noc(N2CCC(COc3ccc(-c4ccc(S(C)(=O)=O)cc4)nc3)CC2)n1 [GSK-1292263] has Population Healthy Nuclei (%) at or above 70%?
TRUE

Kindly determine if Population Healthy Nuclei (%) recorded for CC(=O)Nc1cccc2c1c(Sc1ccc(Cl)cc1)c(C)n2CC(=O)O [AZD1981] is above or exactly 70%.
TRUE

Does the molecule CN[C@@H](C)C(=O)N[C@H](C(=O)N1CCC[C@H]1C(=O)Nc1snnc1-c1ccccc1)C1CCCCC1 [GDC-0152] have recorded Population Healthy Nuclei (%) that is 70% or more?
FALSE

Is the recorded value of Population Healthy Nuclei (%) equal to or greater than 70% for this molecule? NCCc1cn(S(=O)(=O)c2c(Cl)nc3sccn23)c2ccccc12.O=C(O)C(=O)O
FALSE

Confirm if Population Healthy Nuclei (%) reported for the molecule C[C@H](N)COC(=O)[C@@H](CCCCN)NC(=O)Cc1c(-c2ccc3ccccc3c2)[nH]c2c1ccc1ccccc12 is 70% or above.
TRUE

Is Population Healthy Nuclei (%) for CC(/C=C1\SC(=S)N(CCCC(=O)Nc2ccc(C(=O)O)c(O)c2)C1=O)=C\c1ccccc1 at or above 70%?
TRUE

Reported Population Healthy Nuclei (%) at or above 70%? CCCOc1ccc2[nH]cc(C3=CCNCC3)c2n1.Cl
TRUE

Quick check: does CC(C)COc1ccc(CNC(=O)N(Cc2ccc(F)cc2)C2CCN(C)CC2)cc1 [PIMAVANSERIN] have Population Healthy Nuclei (%) greater than or equal to 70%?
FALSE

Hi team, for COc1ccccc1N1CCN(C[C@@H](C(=O)NC(C)(C)C)c2ccccc2)CC1.Cl.Cl , is the recorded Population Healthy Nuclei (%) at or above 70%?
FALSE

Is the recorded value of Population Healthy Nuclei (%) equal to or greater than 70% for this molecule? CN1CCN(c2cc(-c3ccccc3)nc(N)n2)CC1
TRUE

Please check the record N#Cc1cc(F)cc(-c2nc(-c3ccc(F)cn3)no2)c1 and state if its Population Healthy Nuclei (%) is at or above 70%.
TRUE

Threshold query (Population Healthy Nuclei (%) >= 70%) on Cl.N=C(N)NC(=O)Cc1c(Cl)cccc1Cl [GUANFACINE HYDROCHLORIDE]
TRUE

For this molecule, is measured Population Healthy Nuclei (%) 70% or higher? Cc1onc(-c2ccccc2Cl)c1C(=O)N(C)c1ccc(Cl)cc1
FALSE

In plain terms: is recorded Population Healthy Nuclei (%) at least 70% for CC(C)(C)c1cc(NC(=O)Nc2ccc(-c3cn4c(n3)sc3cc(OCCN5CCOCC5)ccc34)cc2)no1 [QUIZARTINIB] ?
FALSE

Is reported Population Healthy Nuclei (%) greater than or equal to 70% here: O=C(NCCN1CCC(n2c(=O)[nH]c3cc(Cl)ccc32)CC1)c1ccc(F)cc1 [HALOPEMIDE]
FALSE

====

Exercise: for every item that follows, state its recorded Population Pyknosed Nuclei (%).
System: Fibroblast
procedure-summary: Multiplex assay against human fibroblast
Type: toxicity, cell-based
assay-context: 12 h, 1 µM, compound concentration 1 uM, replicate 1
# number only, unit % dropped from output

Fill blank: measured Population Pyknosed Nuclei (%) of the compound CCCCC(=O)N(Cc1ccc(-c2ccccc2-c2nnn[nH]2)cc1)[C@H](C(=O)O)C(C)C is ____.
16

GET /values?readout=Population Pyknosed Nuclei (%)&item= Cc1noc(-c2ccc(-c3ccc(CC(=O)O)cc3)cc2)c1NC(=O)O[C@H](C)c1ccccc1Cl
8

Which Population Pyknosed Nuclei (%) reading was recorded for the compound CC(C)c1noc(N2CCC(COc3ccc(-c4ccc(S(C)(=O)=O)cc4)nc3)CC2)n1 ?
11

What does the record list as Population Pyknosed Nuclei (%) for CCCCCC(O)/C=C/[C@H]1C(=O)CC(O)C1C/C=C\CCCC(=O)O (stereo not given in full) ?
10

GET /values?readout=Population Pyknosed Nuclei (%)&item= CCCCC1=NC2(CCCC2)C(=O)N1Cc1ccc(-c2ccccc2-c2nnn[nH]2)cc1
17

====

Please provide measured Population Tubulin-Different-Phenotype (%) for the entries that follow.
Tested on: HEK-293T
procedure-summary: Multiplex assay against HEK293T
Type: toxicity, cell-based
assay-context: human, 12 h, 1 µM, compound concentration 1 uM, replicate 2

Quick one: Population Tubulin-Different-Phenotype (%) for COc1cccc2c1c(NS(=O)(=O)c1ccc(Cl)s1)nn2Cc1cccc(CNC(=O)C(C)(C)O)c1 ?
23%

Could you share which Population Tubulin-Different-Phenotype (%) value was measured for CCCCCC(O)/C=C/[C@H]1C(=O)CC(O)C1C/C=C\CCCC(=O)O (some centres undefined) ?
20%

Reported Population Tubulin-Different-Phenotype (%), molecule CCCCC1=NC2(CCCC2)C(=O)N1Cc1ccc(-c2ccccc2-c2nnn[nH]2)cc1 : ____
20%

Can you look up the measured Population Tubulin-Different-Phenotype (%) of O=C1[C@H](Cc2ccc(O)cc2)N2C(=O)CCN(C(=O)NCc3ccccc3)[C@H]2CN1Cc1cccc2ccccc12 for me?
33%

====

Kindly state Population Apoptotic (%) for each of the entries shown.
Tested on: HEK-293T
procedure-summary: Multiplex assay against HEK293T
Format: toxicity, cell-based
assay-context: human, 48 h, 1 µM, compound concentration 1 uM, replicate 2
Report the figure in % without appending any unit label.

Given the molecule CCCCC1=NC2(CCCC2)C(=O)N1Cc1ccc(-c2ccccc2-c2nnn[nH]2)cc1 , what is its reported Population Apoptotic (%)?
23

Item Cc1sc2c(c1C)C(c1ccc(Cl)cc1)=N[C@@H](CC(=O)NCCCCCCCCNC(=O)COc1cccc3c1C(=O)N(C1CCC(=O)NC1=O)C3=O)c1nnc(C)n1-2 (stereo partly drawn) has what recorded Population Apoptotic (%)?
67

// Population Apoptotic (%) lookup, key: CCCCC(=O)N(Cc1ccc(-c2ccccc2-c2nnn[nH]2)cc1)[C@H](C(=O)O)C(C)C
19

Can you look up the measured Population Apoptotic (%) of Cc1c(CC(=O)O)c2cccnc2n1Cc1ccc(S(C)(=O)=O)cc1C(F)(F)F for me?
20

Bench note: what Population Apoptotic (%) did COc1cccc2c1c(NS(=O)(=O)c1ccc(Cl)s1)nn2Cc1cccc(CNC(=O)C(C)(C)O)c1 show?
28

Param item = C[C@H](N)COC(=O)[C@@H](CCCCN)NC(=O)Cc1c(-c2ccc3ccccc3c2)[nH]c2c1ccc1ccccc12 ; retrieve measured Population Apoptotic (%).
37

# Population Apoptotic (%) lookup, item Cc1cccc(NC(=O)CN2CCC(c3ccccn3)CC2)c1.Cl.Cl
46

Need Population Apoptotic (%) of NCCc1cn(S(=O)(=O)c2c(Cl)nc3sccn23)c2ccccc12.O=C(O)C(=O)O , thanks.
47

====

System: HEK-293T
procedure-summary: Multiplex assay against HEK293T
Format: toxicity, cell-based
assay-context: human, 24 h, 10 µM, compound concentration 10 uM, replicate 2
Lab note: compare Population Pyknosed Nuclei (%) against 10%. Equal or greater, write Fulfilled. Smaller, write Not fulfilled.

Say whether CCCCC1=NC2(CCCC2)C(=O)N1Cc1ccc(-c2ccccc2-c2nnn[nH]2)cc1 shows Population Pyknosed Nuclei (%) of 10% or more.
Fulfilled

Would you say O=C(CCCc1ccccc1)Nc1nc2ccccc2c(=O)s1 shows Population Pyknosed Nuclei (%) at minimum 10%?
Fulfilled

# bool: Population Pyknosed Nuclei (%) of O=C1[C@H](Cc2ccc(O)cc2)N2C(=O)CCN(C(=O)NCc3ccccc3)[C@H]2CN1Cc1cccc2ccccc12 >= 10%
Fulfilled

Entry CCCOc1ccc2[nH]cc(C3=CCNCC3)c2n1.Cl : is its Population Pyknosed Nuclei (%) no less than 10%?
Fulfilled

Quick check: does N#Cc1c(Oc2cccc(OS(=O)(=O)CCCC(F)(F)F)c2)cccc1C(F)(F)F have Population Pyknosed Nuclei (%) greater than or equal to 10%?
Fulfilled

Given the entry Cc1c(CC(=O)O)c2cccnc2n1Cc1ccc(S(C)(=O)=O)cc1C(F)(F)F , answer whether its Population Pyknosed Nuclei (%) meets or surpasses 10%.
Not fulfilled

// inclusive: Population Pyknosed Nuclei (%) at least 10%? input: N#Cc1cc(F)cc(-c2nc(-c3ccc(F)cn3)no2)c1
Not fulfilled

Confirm if Population Pyknosed Nuclei (%) reported for the molecule COc1ccccc1N1CCN(C[C@@H](C(=O)NC(C)(C)C)c2ccccc2)CC1.Cl.Cl is 10% or above.
Fulfilled

Is reported Population Pyknosed Nuclei (%) greater than or equal to 10% here: CC(/C=C1\SC(=S)N(CCCC(=O)Nc2ccc(C(=O)O)c(O)c2)C1=O)=C\c1ccccc1
Fulfilled

Threshold query (Population Pyknosed Nuclei (%) >= 10%) on Cl.NCCc1ccc(O)c(O)c1 [DOPAMINE HYDROCHLORIDE]
Not fulfilled

Hello, I need to know if Cc1cnc(-c2cc(N3CCN(C(=O)CCS(C)(=O)=O)CC3)ncc2Cl)c(C)c1 has measured Population Pyknosed Nuclei (%) not below 10%. Thanks!
Fulfilled

Textbook exercise: given the entry COC[C@@H](c1ccc(C(F)(F)F)cc1)N1CCN(C2(C)CCN(C(=O)c3c(C)ncnc3C)CC2)C[C@@H]1C.O=C(O)/C=C\C(=O)O [VICRIVIROC MALEATE] , state whether its Population Pyknosed Nuclei (%) is greater than or equal to 10%.
Fulfilled

Population Pyknosed Nuclei (%) >= 10% for COc1cccc2c1c(NS(=O)(=O)c1ccc(Cl)s1)nn2Cc1cccc(CNC(=O)C(C)(C)O)c1 ?
Fulfilled

Reported Population Pyknosed Nuclei (%) reaches at least 10% for CN(C)C(=O)Cn1cc(-c2ccc(-c3cncc4ccccc34)cc2)cn1 ?
Fulfilled

API: above_or_equal(metric=Population Pyknosed Nuclei (%), cutoff=10%) for item CN[C@@H](C)C(=O)N[C@H](C(=O)N1CCC[C@H]1C(=O)Nc1snnc1-c1ccccc1)C1CCCCC1
Fulfilled

Does the reported Population Pyknosed Nuclei (%) for CCc1cc2cc(NS(=O)(=O)c3ccc(C#N)cc3)ccc2n(CC)c1=O fall at or above the 10% mark?
Fulfilled

Is Population Pyknosed Nuclei (%) for O=C(NCCN1CCC(n2c(=O)[nH]c3cc(Cl)ccc32)CC1)c1ccc(F)cc1 [HALOPEMIDE] at or above 10%?
Fulfilled

Has Cc1sc2c(c1C)C(c1ccc(Cl)cc1)=N[C@@H](CC(=O)NCCCCCCCCNC(=O)COc1cccc3c1C(=O)N(C1CCC(=O)NC1=O)C3=O)c1nnc(C)n1-2 (stereo not given in full) a recorded Population Pyknosed Nuclei (%) greater than or equal to 10%?
Fulfilled

Answer whether Population Pyknosed Nuclei (%) of CC(C)COc1ccc(CNC(=O)N(Cc2ccc(F)cc2)C2CCN(C)CC2)cc1 is greater than or equal to 10%.
Fulfilled

Evaluate NCCc1cn(S(=O)(=O)c2c(Cl)nc3sccn23)c2ccccc12.O=C(O)C(=O)O : Population Pyknosed Nuclei (%) at minimum 10%?
Fulfilled

Record CC(C)c1noc(N2CCC(COc3ccc(-c4ccc(S(C)(=O)=O)cc4)nc3)CC2)n1 ; criterion: Population Pyknosed Nuclei (%) no lower than 10%. Met?
Fulfilled

Does Population Pyknosed Nuclei (%) meet or surpass 10% for CC(=O)Nc1cccc2c1c(Sc1ccc(Cl)cc1)c(C)n2CC(=O)O ?
Not fulfilled

Decide: Population Pyknosed Nuclei (%) of Cc1onc(-c2ccccc2Cl)c1C(=O)N(C)c1ccc(Cl)cc1 >= 10%?
Not fulfilled
